Attribution: patent US11912693B2

target_entity: human sphingosine-1-phosphate receptor 1 (S1P1) (Homo sapiens (Human))
Sequence (P21453 whole entry, looked up): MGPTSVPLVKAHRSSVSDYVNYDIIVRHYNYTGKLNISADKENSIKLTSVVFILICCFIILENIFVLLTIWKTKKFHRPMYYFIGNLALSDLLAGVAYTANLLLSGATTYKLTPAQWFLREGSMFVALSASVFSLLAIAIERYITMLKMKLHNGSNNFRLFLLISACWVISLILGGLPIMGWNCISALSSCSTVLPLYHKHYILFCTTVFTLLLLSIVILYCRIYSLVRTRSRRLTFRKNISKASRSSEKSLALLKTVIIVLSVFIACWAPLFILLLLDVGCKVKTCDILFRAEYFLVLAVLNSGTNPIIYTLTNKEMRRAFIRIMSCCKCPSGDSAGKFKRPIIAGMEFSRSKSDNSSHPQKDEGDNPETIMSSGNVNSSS
procedure_text: Inhibition of cAMP production (HTRF cAMP HiRange), S1P1 CHO-K1 cells
Type: cell-based
recorded_conditions: inhibition of cAMP production, S1P1 CHO-K1 cells
Some molecules, each annotated with its measured hS1P1 cAMP pEC50.

Examples with answers:
[[record]]
molecule = "CC(C)n1nnc2cc(-c3nc(-c4cccc5c4OCO5)no3)ccc21 [Compound 32]"
measured_property = "hS1P1 cAMP pEC50"
result = ">6.5"

[[record]]
molecule = "COc1ccccc1-c1nnc(-c2ccc3c(c2)oc(=O)n3C)o1 [Compound 406]"
measured_property = "hS1P1 cAMP pEC50"
result = ">6.5"

[[record]]
molecule = "COc1cccc(F)c1-c1noc(-c2ccc3c(ccn3C(C)C)c2)n1 [Compound 328]"
measured_property = "hS1P1 cAMP pEC50"
result = "<6.5"


Which measured hS1P1 cAMP pEC50 value corresponds to COc1ccccc1-c1nnc(-c2ccc3[nH]oc(=O)c3c2)o1 [Compound 339] ?
<6.5

Item: CCC1(CC)CC(=O)c2cc(-c3ncc(-c4ccnc(O)c4)cn3)ccc2O1 [Compound 552]
<6.5

Same question for Cc1ccc(-c2nc(-c3ccc4c(c3)nnn4C(C)C)no2)cn1 [Compound 119] please.
<6.5
